Source: ChEMBL document CHEMBL4229416

- testedTarget: Membrane-associated tyrosine- and threonine-specific cdc2-inhibitory kinase (Homo sapiens, UniProt Q99640)
- Sequence (Q99640 whole entry): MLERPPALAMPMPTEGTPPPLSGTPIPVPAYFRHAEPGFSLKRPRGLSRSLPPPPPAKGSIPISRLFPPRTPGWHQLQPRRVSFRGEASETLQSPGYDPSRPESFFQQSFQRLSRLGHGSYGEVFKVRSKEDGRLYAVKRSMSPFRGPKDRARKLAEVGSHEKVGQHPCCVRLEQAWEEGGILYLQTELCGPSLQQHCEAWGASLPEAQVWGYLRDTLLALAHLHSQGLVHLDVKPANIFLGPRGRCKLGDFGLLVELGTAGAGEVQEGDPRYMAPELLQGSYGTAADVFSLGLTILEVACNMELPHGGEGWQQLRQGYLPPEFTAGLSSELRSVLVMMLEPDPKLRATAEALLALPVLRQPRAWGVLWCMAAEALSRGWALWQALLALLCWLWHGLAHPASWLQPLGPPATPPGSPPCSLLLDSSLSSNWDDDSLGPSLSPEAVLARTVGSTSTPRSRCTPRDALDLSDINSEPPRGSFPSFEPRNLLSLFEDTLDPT
- assayExplanation: Inhibition of N-[3',6'-dihydroxy-3-oxo-3H-spiro(2-benzofuran-1,9'-xanthen)-5-yl]-N'-[2-(4-{4-[N-(2-chloro-6-methylphenyl)-5-carboxamido]-thiazol-2-yl})-amino-2-methyl-pyrimid-6-yl)piperazinyl]-ethyl]thiourea binding to human PKMYT1 kinase doamin expressed in Escherichia coli BL21 after 120 mins by fluorescence polarization asay
Provide the recorded pIC50 for the entries that follow.
Scale note: pIC50 = -log10(concentration in M).

// query For the compound `Cn1c(=O)c(-c2c(Cl)cccc2Cl)cc2cnc(Nc3ccc(N4CCOCC4)cc3)nc21` , report pIC50.
// result 7.26

// query For the compound NC(=O)c1cc(-c2ccncc2)cc(-c2ccccc2)c1N [GSK-625137A] , report pIC50.
// result 4.94

// query For the compound `Cc1cc(O)cc(Nc2ccnc3cc(-c4ccccn4)ccc23)c1` , report pIC50.
// result 5.03

// query For the compound Cc1cc(O)cc(C)c1/C=C/c1cncc(C(N)=O)c1 [GW435821X] , report pIC50.
// result 6.06

// query For the compound `Cc1cc(Nc2ncc3cc(-c4c(Cl)cccc4Cl)c(=O)n(C)c3n2)ccc1F` , report pIC50.
// result 5.57

// query For the compound `COc1cc2ncnc(Nc3cccc(Cl)c3)c2cc1OC` , report pIC50.
// result 4.26

// query For the compound `Oc1cccc(Nc2ccnc3cc(-c4ccncc4)ccc23)c1` , report pIC50.
// result 6.48

// query For the compound `CNC(=O)c1ccccc1Nc1nc(Nc2ccc(N3CCOCC3)cc2)ncc1Cl` , report pIC50.
// result 6.45

// query For the compound `O=C(Nc1cccc(-c2nn3ncccc3c2-c2ccnc(Nc3cccnc3)n2)c1)c1c(F)cccc1F` , report pIC50.
// result 4.72

// query For the compound `CCN(CC)CCOc1ccc(Nc2ncc3cc(-c4c(Cl)cccc4Cl)c(=O)n(C)c3n2)cc1` , report pIC50.
// result 7.51

// query For the compound `CNC(=O)c1ccccc1Nc1nc(Nc2cccc(CS(C)(=O)=O)c2)ncc1C` , report pIC50.
// result 6.82

----------
Provide the recorded pKi for the entries that follow.
- testedTarget: Membrane-associated tyrosine- and threonine-specific cdc2-inhibitory kinase (Homo sapiens)
- Sequence (Q99640 whole entry): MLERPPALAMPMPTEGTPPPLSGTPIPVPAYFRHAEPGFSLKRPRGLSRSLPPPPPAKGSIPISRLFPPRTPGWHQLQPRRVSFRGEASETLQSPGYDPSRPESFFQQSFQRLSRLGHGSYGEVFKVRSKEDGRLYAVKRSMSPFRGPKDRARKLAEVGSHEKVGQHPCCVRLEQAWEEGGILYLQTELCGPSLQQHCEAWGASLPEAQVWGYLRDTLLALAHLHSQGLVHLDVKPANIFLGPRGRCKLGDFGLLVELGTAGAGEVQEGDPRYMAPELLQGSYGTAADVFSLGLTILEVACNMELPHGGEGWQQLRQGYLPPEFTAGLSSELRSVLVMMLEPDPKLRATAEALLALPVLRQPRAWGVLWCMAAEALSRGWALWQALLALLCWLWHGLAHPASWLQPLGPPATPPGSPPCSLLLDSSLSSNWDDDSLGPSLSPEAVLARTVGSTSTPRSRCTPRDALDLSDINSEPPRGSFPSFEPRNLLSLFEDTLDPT
- assayExplanation: Inhibition of N-[3',6'-dihydroxy-3-oxo-3H-spiro(2-benzofuran-1,9'-xanthen)-5-yl]-N'-[2-(4-{4-[N-(2-chloro-6-methylphenyl)-5-carboxamido]-thiazol-2-yl})-amino-2-methyl-pyrimid-6-yl)piperazinyl]-ethyl]thiourea binding to human PKMYT1 kinase doamin expressed in Escherichia coli BL21 after 120 mins by fluorescence polarization asay
Scale note: pKi = -log10(concentration in M).

// query For the molecule `COc1cc2ncnc(Nc3cccc(Cl)c3)c2cc1OC` , report pKi.
// result 4.58

// query For the molecule Cc1cc(O)cc(C)c1/C=C/c1cncc(C(N)=O)c1 [GW435821X] , report pKi.
// result 6.28

// query For the molecule `Cc1cc(O)cc(Nc2ccnc3cc(-c4ccccn4)ccc23)c1` , report pKi.
// result 5.21

// query For the molecule `Cc1cc(Nc2ncc3cc(-c4c(Cl)cccc4Cl)c(=O)n(C)c3n2)ccc1F` , report pKi.
// result 4.87

// query For the molecule `Oc1cccc(Nc2ccnc3cc(-c4ccncc4)ccc23)c1` , report pKi.
// result 6.70

// query For the molecule `CCN(CC)CCOc1ccc(Nc2ncc3cc(-c4c(Cl)cccc4Cl)c(=O)n(C)c3n2)cc1` , report pKi.
// result 8.70

// query For the molecule `CNC(=O)c1ccccc1Nc1nc(Nc2ccc(N3CCOCC3)cc2)ncc1Cl` , report pKi.
// result 6.74

// query For the molecule `Cn1c(=O)c(-c2c(Cl)cccc2Cl)cc2cnc(Nc3ccc(N4CCOCC4)cc3)nc21` , report pKi.
// result 8.09

// query For the molecule `O=C(Nc1cccc(-c2nn3ncccc3c2-c2ccnc(Nc3cccnc3)n2)c1)c1c(F)cccc1F` , report pKi.
// result 4.83

// query For the molecule `CNC(=O)c1ccccc1Nc1nc(Nc2cccc(CS(C)(=O)=O)c2)ncc1C` , report pKi.
// result 6.98

// query For the molecule NC(=O)c1cc(-c2ccncc2)cc(-c2ccccc2)c1N [GSK-625137A] , report pKi.
// result 5.24

----------
- testedTarget: Membrane-associated tyrosine- and threonine-specific cdc2-inhibitory kinase (Homo sapiens, UniProt Q99640)
- Sequence (Q99640 whole entry): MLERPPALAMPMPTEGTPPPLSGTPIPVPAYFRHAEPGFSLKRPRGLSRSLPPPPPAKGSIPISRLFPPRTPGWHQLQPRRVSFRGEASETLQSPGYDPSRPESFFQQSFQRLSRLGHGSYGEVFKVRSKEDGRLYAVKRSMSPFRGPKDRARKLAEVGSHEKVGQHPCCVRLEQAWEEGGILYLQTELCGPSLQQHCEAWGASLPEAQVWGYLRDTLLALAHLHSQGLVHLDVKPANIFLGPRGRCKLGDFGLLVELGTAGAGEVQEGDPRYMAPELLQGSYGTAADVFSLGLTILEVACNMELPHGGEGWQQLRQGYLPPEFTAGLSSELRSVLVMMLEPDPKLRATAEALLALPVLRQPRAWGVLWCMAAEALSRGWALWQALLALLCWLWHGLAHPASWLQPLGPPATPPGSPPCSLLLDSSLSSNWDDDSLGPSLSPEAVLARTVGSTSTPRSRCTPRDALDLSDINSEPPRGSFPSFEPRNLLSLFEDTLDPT
- assayExplanation: Inhibition of human full length PKMYT1 expressed in HEK293 cells using EFS (247 to 259 residues) as substrate after 1 hr by fluorescence polarization immunoasay
Define the label as 1 (yes) when Ki is strictly less than 30 nM and as 0 (no) in all remaining cases.

// query Please let me know if `O=C(Nc1cccc(-c2nn3ncccc3c2-c2ccnc(Nc3cccnc3)n2)c1)c1c(F)cccc1F` shows Ki below 30 nM.
// result 0 (no)

// query Please let me know if `Cc1cc(O)cc(Nc2ccnc3cc(-c4ccccn4)ccc23)c1` shows Ki below 30 nM.
// result 0 (no)

// query Please let me know if COc1cc2ncnc(Nc3cccc(Cl)c3)c2cc1OC [TYRPHOSTIN AG-1478] shows Ki below 30 nM.
// result 0 (no)

// query Please let me know if `CNC(=O)c1ccccc1Nc1nc(Nc2ccc(N3CCOCC3)cc2)ncc1Cl` shows Ki below 30 nM.
// result 1 (yes)

// query Please let me know if `Cn1c(=O)c(-c2c(Cl)cccc2Cl)cc2cnc(Nc3ccc(N4CCOCC4)cc3)nc21` shows Ki below 30 nM.
// result 1 (yes)
